Data provenance: ChEMBL document CHEMBL1127156

Experimental system: UniProt:P04058
Sequence (P04058 whole entry): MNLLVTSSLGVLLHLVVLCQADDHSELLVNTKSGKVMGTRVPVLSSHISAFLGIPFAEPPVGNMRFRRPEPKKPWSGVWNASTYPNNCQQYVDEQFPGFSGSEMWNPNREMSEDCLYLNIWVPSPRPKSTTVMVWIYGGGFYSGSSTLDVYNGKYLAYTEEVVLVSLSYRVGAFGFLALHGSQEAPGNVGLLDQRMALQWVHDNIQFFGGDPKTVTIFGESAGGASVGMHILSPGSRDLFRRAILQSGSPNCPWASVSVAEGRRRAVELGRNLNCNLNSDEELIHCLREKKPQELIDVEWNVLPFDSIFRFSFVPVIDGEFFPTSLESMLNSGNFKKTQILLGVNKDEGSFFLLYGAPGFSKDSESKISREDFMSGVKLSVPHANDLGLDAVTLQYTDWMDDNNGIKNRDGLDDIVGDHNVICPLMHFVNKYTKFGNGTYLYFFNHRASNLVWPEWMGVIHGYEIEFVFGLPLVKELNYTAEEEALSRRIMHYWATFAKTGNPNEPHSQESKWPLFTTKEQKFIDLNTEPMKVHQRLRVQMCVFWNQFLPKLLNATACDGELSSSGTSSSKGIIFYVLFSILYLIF
Property: Ki; scope: individual molecules
Give just the numeric value; nM need not be written.

Consider the reported Ki for these molecules:
# Input smiles, Measured metric, Meas value
records = [
    ("O=C(c1cccc(C(F)(F)F)c1)C(F)(F)F", "Ki", 0.39),
    ("CC(C)(C)c1cccc(C(=O)C(F)(F)F)c1", "Ki", 0.0037),
    ("CCc1cccc(C(=O)C(F)(F)F)c1", "Ki", 0.39),
    ("CC(C)c1cccc(C(=O)C(F)(F)F)c1", "Ki", 0.0085),
]

Could you now consider this next molecule?
Please fill in: Ki reported for Cc1cccc(C(=O)C(F)(F)F)c1 = 2.4
